- Tested on: JAK1-dependent STAT6 phosphorylation downstream of IL-13 stimulation in TF-1 human erythroleukemia cells
- Run parameters: read-out: IL-13-pSTAT6 IC50, TF-1 cells
Value kind: IC50 (nM)
Numbers only, in nM.

INSERT INTO results (compound, value_kind, test_value) VALUES
  ('CNC(=O)C1CN(C(C)C)CCN1C(=O)c1ccc(Nc2nc3c(C4=CCN(C(=O)CCC(F)(F)F)CC4)cccn3n2)cc1 (centres unmarked) [Example 2-327]', 'IC50', 19.9);

For the next question, use this compound.
Query: Which IC50 reading was recorded for the compound CN1CCC(N(C)C(=O)c2ccc(Nc3nc4c(C5=CCN(C(=O)C6CCC(C#N)CC6)CC5)cccn4n3)cc2)CC1 (centres unmarked) [Example 2-285] ?
Result: 739

====

For each of the molecules below, state its IC50.
- Test system: JAK1-dependent STAT6 phosphorylation downstream of IL-13 stimulation in TF-1 human erythroleukemia cells
- Assay method text: cells
- Run parameters: TF-1, read-out: IL-13-pSTAT6 IC50
Give bare numbers, in nM.

These solved cases illustrate the format of a correct answer.
INSERT INTO assay_data (molecule, unit_spec, test_value) VALUES
  ('CCOC(=O)N1CC=C(c2cccn3nc(Nc4ccc(C(=O)N5CC6(CNC6)C5)cc4)nc23)CC1', 'nM', 134),
  ('O=C(CCC(F)(F)F)N1CC=C(c2cccn3nc(Nc4ccc(C(=O)N5CCCC6(CCCNC6)C5)cc4)nc23)CC1 (stereo not drawn)', 'nM', 72.3),
  ('CN1CCC(NC(=O)c2ccc(Nc3nc4c(N5CCC(O)(c6ccc(Cl)cc6)CC5)cccn4n3)cc2)C1 (stereo not drawn)', 'nM', 22.8),
  ('O=C(NCC1CCCNC1)c1ccc(Nc2nc3c(N4CCC(O)(c5ccc(Cl)cc5)CC4)cccn3n2)cc1 (stereo not drawn)', 'nM', 536);

For each of the items listed, what is its IC50?
1. O=C(c1ccc(Nc2nc3c(N4CCC(O)(c5ccc(Cl)cc5)CC4)cccn3n2)cc1)N1CC2(CNC2)C1
2. O=C(NCCN1CCNCC1)c1ccc(Nc2nc3c(C4=CCN(C(=O)CCC(F)(F)F)CC4)cccn3n2)cc1

Result:
1. 342
2. 536

For each of the items listed, what is its IC50?
1. O=C(CCC(F)(F)F)N1CC=C(c2cccn3nc(Nc4ccc(C(=O)N5CCC6(CCNC6)CC5)cc4)nc23)CC1
2. CN1CCC(N(C)C(=O)c2ccc(Nc3nc4c(N5CCC(CC#N)(c6ccccc6)CC5)cccn4n3)cc2)CC1
3. CN1CCC(N(C)C(=O)c2ccc(Nc3nc4c(C5=CCN(C(=O)C6CCOCC6)CC5)cccn4n3)cc2)CC1
4. CN1CCC(OC(=O)c2ccc(Nc3nc4c(C5=CCN(C(=O)CCC(F)(F)F)CC5)cccn4n3)cc2)CC1
5. CN1CCC(N(C(=O)c2ccc(Nc3nc4c(C5=CCN(C(=O)CCC(F)(F)F)CC5)cccn4n3)cc2)C2CC2)CC1
6. CN(Cc1ccc2c(c1)CCCN2C)C(=O)c1ccc(Nc2nc3c(C4=CCN(C(=O)CCC(F)(F)F)CC4)cccn3n2)cc1
7. CCOC(=O)N1CC=C(c2cccn3nc(Nc4ccc(C(=O)NCC5CCCCN5C)cc4)nc23)CC1 (stereo not drawn)
8. O=C(CCC(F)(F)F)N1CC=C(c2cccn3nc(Nc4ccc(C(=O)N(CCO)Cc5cccnc5)cc4)nc23)CC1

Result:
1. 163
2. 15.9
3. 373
4. 11.7
5. 8.3
6. 113
7. 13
8. 38.8

For each of the items listed, what is its IC50?
1. CC(CN1CCCCC1)NC(=O)c1ccc(Nc2nc3c(C4=CCN(C(=O)CCC(F)(F)F)CC4)cccn3n2)cc1 (stereo not drawn)
2. O=C(c1ccc(Nc2nc3c(N4CCC(O)(c5ccc(Cl)cc5)CC4)cccn3n2)cc1)N1CCNCC1CO (stereo not drawn)
3. CNC(=O)C1CN(C)CCN1C(=O)c1ccc(Nc2nc3c(N4CCC(O)(c5ccc(Cl)cc5)CC4)cccn3n2)cc1 (stereo not drawn)
4. CN(C)C(=O)C1(c2ccncc2)CCCN1C(=O)c1ccc(Nc2nc3c(C4=CCN(C(=O)CCC(F)(F)F)CC4)cccn3n2)cc1 (stereo not drawn)
5. O=C(N[C@H]1[C@@H]2CNC[C@@H]21)c1ccc(Nc2nc3c(N4CCC(O)(c5ccc(Cl)cc5)CC4)cccn3n2)cc1
6. CN1CCC(N(C)C(=O)c2ccc(Nc3nc4c(C5=CCN(C(=O)C6CC6(C)C)CC5)cccn4n3)cc2)CC1 (stereo not drawn)
7. CCOC(=O)N1CC=C(c2cccn3nc(Nc4ccc(C(=O)N5Cc6cccnc6C5)cc4)nc23)CC1

Result:
1. 4.3
2. 53.1
3. 65
4. 46.5
5. 180
6. 47
7. 29.8

For each of the items listed, what is its IC50?
1. CCN(Cc1ccncc1)C(=O)c1ccc(Nc2nc3c(C4=CCN(C(=O)CCC(F)(F)F)CC4)cccn3n2)cc1
2. O=C(CCC(F)(F)F)N1CC=C(c2cccn3nc(Nc4ccc(C(=O)N5CCCC(c6cc7cccnc7[nH]6)C5)cc4)nc23)CC1 (stereo not drawn)
3. COCCC(=O)N1CC=C(c2cccn3nc(Nc4ccc(C(=O)N(C)C5CCN(C)CC5)cc4)nc23)CC1
4. CN1CCC(N(C)C(=O)c2ccc(Nc3nc4c(C5=CCN(C(=O)OCC6CC6)CC5)cccn4n3)cc2)CC1

Result:
[3.3, 145, 348, 32.7]

For each of the items listed, what is its IC50?
1. CN1CCC2CN(C(=O)c3ccc(Nc4nc5c(N6CCC(CO)(c7ccc(Cl)cc7)CC6)cccn5n4)cc3)CC21 (stereo not drawn)
2. CN1CCC(N(C)C(=O)c2ccc(Nc3nc4c(C5=CCN(C(=O)OC6CCOC6)CC5)cccn4n3)cc2)CC1 (stereo not drawn)

Result:
3
89.1

Numbers sourced from patent US9873709B2.
